molecular target: HCMV No protease (Human cytomegalovirus, UniProt P16753); construct: at a position located near the center of the precursor (R-site) to excise the catalytic domain (No); assay: biochemical
Sequence (P16753 1-256): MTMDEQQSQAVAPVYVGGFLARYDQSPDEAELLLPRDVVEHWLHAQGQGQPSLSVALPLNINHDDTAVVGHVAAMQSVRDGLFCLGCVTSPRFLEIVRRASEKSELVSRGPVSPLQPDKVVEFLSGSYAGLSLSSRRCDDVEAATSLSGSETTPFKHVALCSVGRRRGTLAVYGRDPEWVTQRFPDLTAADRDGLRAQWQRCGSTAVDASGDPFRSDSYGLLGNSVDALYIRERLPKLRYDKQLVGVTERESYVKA
pIC50: −log10 of the molar value.

- molecule: "CC(NC(=O)[C@H](CC(=O)N(C)C)NC(=O)[C@@H](NC(=O)CC(C)(C)C)C(C)(C)C)P(=O)(Oc1ccccc1)Oc1ccccc1 (stereo partly shown) [Compound 79]"
  pIC50: 6.18

###

Target: HCMV No protease (Human cytomegalovirus)
Construct: at a position located near the center of the precursor (R-site) to excise the catalytic domain (No)
Assay: biochemical
Conditions: inhibitor pre-incubated 5 hr at 30° C. with enzyme, fluorogenic substrate; read-out: IC50
Experimental: HCMV No protease assay: HCMV No protease was assayed with an internally quenched fluorogenic substrate based on the maturation cleavage site (Abz-[…](3-NO2)R-OH, kcat /KM =260 M^-1 s^-1) . […] A protocol adaptable to a 96-well plate format was designed for the determination of IC50 values of inhibitors. […] No quenching was required before fluorescence measurement since the total scanning time by the plate reader accessory was brief relative to the duration of the reaction. […]
Non-standard residues stand in square brackets, D forms with d. Residues, ends and D or L forms follow the SMILES beside them. ξ: configuration not given here. *: point of attachment. ξNva = CCCC(N)C(=O)O; CF3 = FC(F)(F)*
Measured IC50 accompanies every entry in the list below.

- molecule: "CC[C@@H](NC(=O)C(=O)C(C)NC(=O)[C@H](CC(=O)N(C)C)NC(=O)[C@@H](NC(=O)[C@@H](NC(=O)CCCCCNC(=O)OC(C)(C)C)C(C)(C)C)C(C)(C)C)c1ccccc1 (stereo partly shown) [Compound 96]"
  unitsOfMeasure: "nM"
  valueComparator: "="
  IC50: 57
- molecule: "CC(NC(=O)[C@H](CCC(=O)N(C)C)NC(=O)[C@@H](NC(=O)CC(C)(C)C)C(C)(C)C)C(=O)C(F)(F)C(F)(F)F (stereo partly shown) [Compound 307]"
  unitsOfMeasure: "nM"
  valueComparator: "="
  IC50: 2000
- molecule: "CC[C@@H](NC(=O)C(=O)C(C)NC(=O)[C@H](CS(N)(=O)=O)NC(=O)[C@@H](NC(=O)CC(C)(C)C)C(C)(C)C)c1ccccc1 (stereo partly shown) [Compound 310]"
  unitsOfMeasure: "nM"
  valueComparator: "="
  IC50: 970
- molecule: "CC(NC(=O)[C@H](CC(=O)N1CCOCC1)NC(=O)[C@@H](NC(=O)CC(C)(C)C)C(C)(C)C)C(=O)C(F)(F)C(F)(F)F (stereo partly shown) [Compound 308]"
  unitsOfMeasure: "nM"
  valueComparator: "="
  IC50: 300
- molecule: "CC(NC(=O)[C@H](CC(=O)N1CCCC1)NC(=O)[C@@H](NC(=O)CC(C)(C)C)C(C)(C)C)C(=O)C(=O)NCc1ccc(I)cc1 (stereo partly shown) [Compound 98]"
  unitsOfMeasure: "nM"
  valueComparator: "="
  IC50: 340
- molecule: "CC[C@@H](NC(=O)C(=O)C(C)NC(=O)[C@H](CC(=O)N(C)CCc1ccccn1)NC(=O)[C@@H](NC(=O)CC(C)(C)C)C(C)(C)C)c1ccccc1 (stereo partly shown) [Compound 309]"
  unitsOfMeasure: "nM"
  valueComparator: "="
  IC50: 120
- molecule: "CC(NC(=O)[C@@H](CC(=O)[C@@H](NC(=O)CC(C)(C)C)C(C)(C)C)CC(=O)C(C)(C)C)C(=O)C(F)(F)F (stereo partly shown) [Compound 311]"
  unitsOfMeasure: "nM"
  valueComparator: "="
  IC50: 6800
- molecule: "CC(NC(=O)[C@H](CC(=O)N(C)C)NC(=O)[C@@H](NC(=O)[C@@H](NC(=O)OC(C)(C)C)C(C)C)C(C)C)C(=O)C(=O)Nc1ccccc1 (stereo partly shown) [Compound 410]"
  unitsOfMeasure: "nM"
  valueComparator: "="
  IC50: 1500
- molecule: "CC(NC(=O)[C@@H](CC(=O)C(NC(=O)CC(C)(C)C)C(C)(C)C)CC(=O)N(C)C)C(=O)C(F)(F)C(F)(F)F (mixture of isomers) [Compound 312]"
  unitsOfMeasure: "nM"
  valueComparator: "="
  IC50: 5800
- molecule: "CC(NC(=O)[C@H](CC(=O)N1CCCC1)NC(=O)[C@@H](NC(=O)CC(C)(C)C)C(C)(C)C)C(=O)C(=O)NCCOCc1ccccc1 (stereo partly shown) [Compound 305]"
  unitsOfMeasure: "nM"
  valueComparator: "="
  IC50: 300
- molecule: "CC(NC(=O)[C@H](CC(=O)N(C)C)NC(=O)[C@@H](NC(=O)[C@@H](N)C(C)C)C(C)C)C(=O)C(=O)NCc1ccc(C(F)(F)F)cc1 (stereo partly shown) [Compound 404]"
  unitsOfMeasure: "nM"
  valueComparator: "="
  IC50: 1700
- molecule: "Cc1ccc2nc(C(=O)C(C)NC(=O)[C@H](CC(=O)N(C)C)NC(=O)[C@@H](NC(=O)CC(C)(C)C)C(C)(C)C)oc2c1 (stereo partly shown) [Compound 82]"
  unitsOfMeasure: "nM"
  valueComparator: "="
  IC50: 600
- molecule: "CC(NC(=O)[C@H](CC(=O)N(C)C)NC(=O)[C@@H](NC(=O)[C@@H](NC(=O)OC(C)(C)C)C(C)C)C(C)C)C(=O)C(=O)Nc1cccc(C(N)=O)c1 (stereo partly shown) [Compound 414]"
  unitsOfMeasure: "nM"
  valueComparator: "="
  IC50: 1600
- molecule: "CC(NC(=O)[C@H](CC(=O)N(C)C)NC(=O)[C@@H](NC(=O)[C@@H](NC(=O)OC(C)(C)C)C(C)C)C(C)C)C(=O)C(=O)NC1CCCCC1 (stereo partly shown) [Compound 411]"
  unitsOfMeasure: "nM"
  valueComparator: "="
  IC50: 1800
- molecule: "CCCCC[C@@H](C)NC(=O)C(=O)C(C)NC(=O)[C@H](CC(=O)N(C)C)NC(=O)[C@@H](NC(=O)CC(C)(C)C)C(C)(C)C (stereo partly shown) [Compound 406]"
  unitsOfMeasure: "nM"
  valueComparator: "="
  IC50: 800
- molecule: "CC(NC(=O)[C@H](CC(=O)N(C)C)NC(=O)[C@@H](NC(=O)CC(C)(C)C)C(C)(C)C)C(=O)C(=O)NCc1ccc(C(=O)N2CCOCC2)cc1 (stereo partly shown) [Compound 405]"
  unitsOfMeasure: "nM"
  valueComparator: "="
  IC50: 500
- molecule: "CC[C@@H](NC(=O)C(=O)C(C)NC(=O)[C@H](CC(=O)N(C)C)NC(=O)[C@@H](NC(=O)[C@@H](NC(=O)CCCCCN)C(C)(C)C)C(C)(C)C)c1ccccc1 (stereo partly shown) [Compound 97]"
  unitsOfMeasure: "nM"
  valueComparator: "="
  IC50: 73
- molecule: "CCCC(NC(=O)[C@H](CC(N)=O)NC(=O)[C@@H](NC(=O)[C@@H](NC(C)=O)C(C)C)C(C)C)C(=O)C(F)(F)F (stereo partly shown) [Compound 45] (Ac-VVN[ξNva]-CF3)"
  unitsOfMeasure: "nM"
  valueComparator: ">"
  IC50: 300000
- molecule: "CC(NC(=O)[C@H](CC(=O)N(C)C)NC(=O)[C@@H](NC(=O)CC(C)(C)C)C(C)(C)C)C(=O)C(=O)N[C@H](C)c1cccc2ccccc12 (stereo partly shown) [Compound 407]"
  unitsOfMeasure: "nM"
  valueComparator: "="
  IC50: 200
